target: CFTR-G1349D (Homo sapiens, UniProt P13569, G1349D); construct: expressed in transfected cells; assay: YFP-halide influx assay for the CFTR-G1349D; type: cell-based
Sequence (P13569 whole entry G1349D): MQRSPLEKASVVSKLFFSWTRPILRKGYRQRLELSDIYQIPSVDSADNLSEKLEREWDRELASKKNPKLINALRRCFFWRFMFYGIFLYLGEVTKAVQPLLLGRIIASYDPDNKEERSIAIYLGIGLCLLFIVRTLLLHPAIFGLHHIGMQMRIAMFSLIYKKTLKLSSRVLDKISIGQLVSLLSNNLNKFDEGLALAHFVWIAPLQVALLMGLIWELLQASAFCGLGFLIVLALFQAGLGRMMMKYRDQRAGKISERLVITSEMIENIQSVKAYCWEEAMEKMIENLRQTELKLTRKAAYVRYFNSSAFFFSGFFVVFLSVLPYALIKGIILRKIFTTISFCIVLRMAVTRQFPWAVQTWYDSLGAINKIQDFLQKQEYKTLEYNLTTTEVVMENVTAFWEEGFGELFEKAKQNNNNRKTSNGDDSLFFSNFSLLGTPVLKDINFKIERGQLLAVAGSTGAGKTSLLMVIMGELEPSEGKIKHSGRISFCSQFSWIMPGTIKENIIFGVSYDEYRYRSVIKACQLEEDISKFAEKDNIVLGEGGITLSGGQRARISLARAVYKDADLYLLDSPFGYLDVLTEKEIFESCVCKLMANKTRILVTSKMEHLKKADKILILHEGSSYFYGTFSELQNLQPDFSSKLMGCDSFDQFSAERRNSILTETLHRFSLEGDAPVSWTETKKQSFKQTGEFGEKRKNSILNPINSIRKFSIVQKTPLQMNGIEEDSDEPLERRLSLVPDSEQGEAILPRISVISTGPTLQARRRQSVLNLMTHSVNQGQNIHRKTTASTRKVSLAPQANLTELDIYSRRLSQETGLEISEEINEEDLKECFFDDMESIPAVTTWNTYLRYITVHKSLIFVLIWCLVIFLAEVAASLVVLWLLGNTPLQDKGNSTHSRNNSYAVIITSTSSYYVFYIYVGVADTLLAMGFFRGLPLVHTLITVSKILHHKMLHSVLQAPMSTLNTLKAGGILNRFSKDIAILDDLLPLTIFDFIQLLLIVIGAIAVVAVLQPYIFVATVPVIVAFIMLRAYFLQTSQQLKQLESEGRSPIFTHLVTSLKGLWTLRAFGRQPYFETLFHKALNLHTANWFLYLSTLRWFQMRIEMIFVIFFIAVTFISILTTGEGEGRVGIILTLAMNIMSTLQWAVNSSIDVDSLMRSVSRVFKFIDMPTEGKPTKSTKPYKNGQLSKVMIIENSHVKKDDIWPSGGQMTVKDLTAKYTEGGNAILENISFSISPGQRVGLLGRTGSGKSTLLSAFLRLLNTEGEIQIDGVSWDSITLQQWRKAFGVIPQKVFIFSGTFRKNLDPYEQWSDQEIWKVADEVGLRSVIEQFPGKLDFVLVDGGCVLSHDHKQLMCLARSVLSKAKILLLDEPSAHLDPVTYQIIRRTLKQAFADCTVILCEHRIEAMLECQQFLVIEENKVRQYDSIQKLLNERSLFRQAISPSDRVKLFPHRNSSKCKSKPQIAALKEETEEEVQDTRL
RECORDED ENDPOINT: % Activation (%)
Record the value in %, omitting the unit from your answer.

**Q:** Requested field: % Activation. Item: C[C@H](O)CNC(=O)c1ncc(S(=O)(=O)c2ccc(OC(F)(F)F)cc2)cc1N [Compound 21]
**A:** 88.9

**Q:** Requested field: % Activation. Item: Nc1cc(S(=O)(=O)c2ccc(OC(F)(F)F)cc2)cnc1C(=O)N[C@@H]1COCC[C@@H]1O (racemic) [Compound 33]
**A:** 92.9

**Q:** Requested field: % Activation. Item: Nc1cc(S(=O)(=O)c2ccc(OC(F)(F)F)cc2)cnc1C(=O)N1CC(O)C1 [Compound 32]
**A:** 88.0

**Q:** Requested field: % Activation. Item: Nc1cc(S(=O)(=O)c2ccc(F)cc2)cnc1C(=O)NC[C@H](O)C(F)(F)F [Compound 25]
**A:** 82.6

**Q:** Requested field: % Activation. Item: Nc1cc(S(=O)(=O)c2ccc(C(F)(F)F)cc2)cnc1C(=O)NC[C@@H](O)C(F)(F)F [Compound 63]
**A:** 82.8

**Q:** Requested field: % Activation. Item: Nc1cc(S(=O)(=O)c2ccc(C(F)(F)F)cc2)cnc1C(=O)N1CC(F)(F)C1 [Compound 103]
**A:** 67.7

**Q:** Requested field: % Activation. Item: Nc1cc(S(=O)(=O)c2ccccc2OC(F)(F)F)cnc1C(=O)NCCO [Compound 75]
**A:** 98.7

**Q:** Requested field: % Activation. Item: COC[C@H](O)CNC(=O)c1ncc(S(=O)(=O)c2ccc(C(F)(F)F)cc2)cc1N [Compound 70]
**A:** 89.6

**Q:** Requested field: % Activation. Item: Nc1cc(S(=O)(=O)c2ccc(OC(F)(F)F)cc2)cnc1C(=O)N1CC(F)(F)C1 [Compound 40]
**A:** 84.31

**Q:** Requested field: % Activation. Item: CC(O)(CNC(=O)c1ncc(S(=O)(=O)c2ccc(F)cc2)cc1N)C(F)(F)F (stereo not shown) [Compound 19]
**A:** 84.3

**Q:** Requested field: % Activation. Item: Nc1cc(S(=O)(=O)c2ccc(F)cc2)c(-c2ccc(F)cc2)nc1C(=O)NC[C@@H](O)C(F)(F)F [Compound 259]
**A:** 91.0

**Q:** Requested field: % Activation. Item: Nc1cc(S(=O)(=O)c2ccc(OC(F)(F)F)cc2)cnc1C(=O)N1CC(O)(C2CC2)C1 [Compound 86]
**A:** 85.79

**Q:** Requested field: % Activation. Item: Nc1cc(S(=O)(=O)c2ccccc2OC(F)(F)F)cnc1C(=O)NC[C@@H](O)C(F)(F)F [Compound 81]
**A:** 96.01

**Q:** Requested field: % Activation. Item: C[C@H](O)CNC(=O)c1ncc(S(=O)(=O)c2ccccc2OC(F)(F)F)cc1N [Compound 82]
**A:** 92.74

**Q:** Requested field: % Activation. Item: COCC(O)CNC(=O)c1ncc(S(=O)(=O)c2ccccc2OC(F)(F)F)cc1N (stereo not shown) [Compound 80]
**A:** 98.43

**Q:** Requested field: % Activation. Item: Nc1cc(S(=O)(=O)c2ccc(OC(F)(F)F)cc2)cnc1C(=O)NCCO [Compound 14]
**A:** 66.7

----------
target: CFTR G551D mutant (Homo sapiens, UniProt P13569, G551D); construct: expressed in transfected cells; host or cells: HEK293 cells, reverse transfection with plasmids; experiment: YFP-halide influx assay for the CFTR-G551D mutation (HEK293 cells); assay type: cell-based; settings: forskolin 10.67 μM
Sequence (P13569 whole entry G551D): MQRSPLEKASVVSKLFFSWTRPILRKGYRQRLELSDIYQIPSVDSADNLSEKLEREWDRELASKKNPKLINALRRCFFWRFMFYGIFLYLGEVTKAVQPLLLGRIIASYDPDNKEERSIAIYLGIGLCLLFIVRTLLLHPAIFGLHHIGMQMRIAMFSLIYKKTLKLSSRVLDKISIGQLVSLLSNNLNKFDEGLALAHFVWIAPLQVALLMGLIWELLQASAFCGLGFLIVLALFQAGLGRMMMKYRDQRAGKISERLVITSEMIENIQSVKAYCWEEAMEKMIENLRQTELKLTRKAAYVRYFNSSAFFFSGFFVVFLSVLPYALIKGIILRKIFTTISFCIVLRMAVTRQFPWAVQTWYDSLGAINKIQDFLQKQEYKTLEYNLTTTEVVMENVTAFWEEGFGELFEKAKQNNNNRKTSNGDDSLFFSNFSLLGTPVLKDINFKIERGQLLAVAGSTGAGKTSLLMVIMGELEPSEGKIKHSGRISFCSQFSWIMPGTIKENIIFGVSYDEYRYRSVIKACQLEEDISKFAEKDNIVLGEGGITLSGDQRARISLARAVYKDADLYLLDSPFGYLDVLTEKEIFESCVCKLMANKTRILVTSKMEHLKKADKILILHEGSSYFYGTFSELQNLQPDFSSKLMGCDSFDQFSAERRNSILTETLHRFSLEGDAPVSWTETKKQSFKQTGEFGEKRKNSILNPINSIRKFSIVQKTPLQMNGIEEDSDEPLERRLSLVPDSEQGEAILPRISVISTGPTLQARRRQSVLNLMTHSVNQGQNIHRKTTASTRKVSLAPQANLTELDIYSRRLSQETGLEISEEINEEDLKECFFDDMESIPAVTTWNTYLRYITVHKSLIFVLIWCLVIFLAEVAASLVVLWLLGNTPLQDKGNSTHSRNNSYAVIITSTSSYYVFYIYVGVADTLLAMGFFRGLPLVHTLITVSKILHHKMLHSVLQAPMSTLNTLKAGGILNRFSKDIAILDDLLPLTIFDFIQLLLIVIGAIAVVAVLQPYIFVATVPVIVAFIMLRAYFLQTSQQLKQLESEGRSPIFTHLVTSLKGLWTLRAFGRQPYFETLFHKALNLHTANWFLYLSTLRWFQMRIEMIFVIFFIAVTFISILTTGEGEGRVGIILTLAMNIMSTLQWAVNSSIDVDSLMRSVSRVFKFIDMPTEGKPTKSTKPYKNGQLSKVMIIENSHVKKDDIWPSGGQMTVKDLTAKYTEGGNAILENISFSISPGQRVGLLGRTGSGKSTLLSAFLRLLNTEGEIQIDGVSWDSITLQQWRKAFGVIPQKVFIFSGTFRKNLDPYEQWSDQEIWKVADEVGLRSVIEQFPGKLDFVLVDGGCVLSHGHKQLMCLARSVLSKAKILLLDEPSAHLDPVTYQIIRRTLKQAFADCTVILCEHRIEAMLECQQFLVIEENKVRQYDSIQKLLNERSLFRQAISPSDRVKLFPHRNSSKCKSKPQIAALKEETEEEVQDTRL
RECORDED ENDPOINT: % Activation

**Q:** Requested field: % Activation. Item: Nc1cc(S(=O)(=O)c2ccc(C(F)(F)F)cc2)cnc1C(=O)NCCOCC1CCCO1 (centres unmarked) [Compound 190]
**A:** 67.4%

**Q:** Requested field: % Activation. Item: COCCN(C1CC1)S(=O)(=O)c1cnc(C(=O)NCC(O)C(F)(F)F)c(N)c1 (centres unmarked) [Compound 108]
**A:** 56.8%

**Q:** Requested field: % Activation. Item: Nc1cc(S(=O)(=O)c2ccc(C(F)(F)F)cc2)cnc1C(=O)N[C@@H]1CCC[C@@H]1O [Compound 205]
**A:** 37.6%

**Q:** Requested field: % Activation. Item: Nc1cc(S(=O)(=O)c2ccc(OC(F)(F)F)cc2)cnc1C(=O)NC1(C(F)(F)F)COC1 [Compound 214]
**A:** 39.1%

**Q:** Requested field: % Activation. Item: Nc1cc(S(=O)(=O)c2ccc(OC(F)(F)F)cc2)cnc1C(=O)N1CC2(COC2)C1 [Compound 68]
**A:** 54.0%

**Q:** Requested field: % Activation. Item: CN(Cc1ccc(F)c(F)c1)S(=O)(=O)c1cnc(C(=O)NCC(O)C(F)(F)F)c(N)c1 (centres unmarked) [Compound 136]
**A:** 53.4%

**Q:** Requested field: % Activation. Item: C[C@H](O)CNC(=O)c1nc(OCCN(C)C)c(S(=O)(=O)c2ccc(OC(F)(F)F)cc2)cc1N [Compound 289]
**A:** 31.0%

**Q:** Requested field: % Activation. Item: Nc1cc(S(=O)(=O)c2ccc(C(F)(F)F)cc2)cnc1C(=O)NC[C@@H](O)C(F)(F)F [Compound 63]
**A:** 60.8%

----------
biological target: CFTR-R117H (Homo sapiens, UniProt P13569, R117H); construct: expressed in transfected cells; assay: YFP-halide influx assay for the CFTR-R117H; format: cell-based
Sequence (P13569 whole entry R117H): as the sequence (P13569 whole entry G1349D) above, with R117H, D1349G counted along it
RECORDED ENDPOINT: % Activation

**Q:** Requested field: % Activation. Item: CC(O)(CNC(=O)c1ncc(S(=O)(=O)c2ccc(F)cc2)cc1N)C(F)(F)F (stereo not shown)
**A:** 90.8%

**Q:** Requested field: % Activation. Item: CC(C)OCC(O)CNC(=O)c1ncc(S(=O)(=O)c2ccc(C(F)(F)F)cc2)cc1N (stereo not shown)
**A:** 94.77%

**Q:** Requested field: % Activation. Item: "CC1(O)CN(C(=O)c2ncc(S(=O)(=O)c3ccc(C(F)(F)F)cc3)cc2N)C1"
**A:** 89.6%

**Q:** Requested field: % Activation. Item: "COC[C@H](O)CNC(=O)c1ncc(S(=O)(=O)c2ccc(C(F)(F)F)cc2)cc1N"
**A:** 98.8%

**Q:** Requested field: % Activation. Item: "Nc1cc(S(=O)(=O)c2ccc(F)cc2)cnc1C(=O)N1CC(O)(C(F)(F)F)C1"
**A:** 111.0%

**Q:** Requested field: % Activation. Item: "Nc1cc(S(=O)(=O)c2ccc(C(F)(F)F)cc2)cnc1C(=O)NCC(F)(F)CO"
**A:** 103.0%

**Q:** Requested field: % Activation. Item: "Nc1cc(S(=O)(=O)c2ccc(C(F)(F)F)cc2)cnc1C(=O)NC[C@@H](O)C(F)(F)F"
**A:** 89.3%

**Q:** Requested field: % Activation. Item: "Nc1cc(S(=O)(=O)c2ccccc2OC(F)(F)F)cnc1C(=O)N1CC(F)(F)C1"
**A:** 89.74%

**Q:** Requested field: % Activation. Item: Nc1cc(S(=O)(=O)c2ccc(OC(F)(F)F)cc2)cnc1C(=O)NCC(O)COCC1CC1 (stereo not shown)
**A:** 100.0%

**Q:** Requested field: % Activation. Item: COCC(O)CNC(=O)c1ncc(S(=O)(=O)c2ccccc2OC(F)(F)F)cc1N (stereo not shown)
**A:** 111.5%

**Q:** Requested field: % Activation. Item: "CC(C)(O)CNC(=O)c1ncc(S(=O)(=O)c2ccc(C(F)(F)F)cc2)cc1N"
**A:** 90.4%

**Q:** Requested field: % Activation. Item: "C[C@H](O)CNC(=O)c1ncc(S(=O)(=O)c2ccc(OC(F)(F)F)cc2)cc1N"
**A:** 93.3%

**Q:** Requested field: % Activation. Item: "Nc1cc(S(=O)(=O)c2ccccc2OC(F)(F)F)cnc1C(=O)N1CC(O)(C(F)(F)F)C1"
**A:** 103%

**Q:** Requested field: % Activation. Item: "COCC1(C)CN(C(=O)c2ncc(S(=O)(=O)c3ccc(OC(F)(F)F)cc3)cc2N)C1"
**A:** 107.0%

**Q:** Requested field: % Activation. Item: Nc1cc(S(=O)(=O)c2ccc(OC(F)(F)F)cc2)cnc1C(=O)NCC1CCCO1 (stereo not shown)
**A:** 82.7%

**Q:** Requested field: % Activation. Item: "Nc1cc(S(=O)(=O)c2ccc(F)cc2)cnc1C(=O)NC[C@@H](O)C(F)(F)F"
**A:** 100.8%
